system: Echinochloa esculenta; test: Herbicidal activity against Echinochloa esculenta assessed as inhibition of seed germination at 1000 nM after 5 days relative to control; type: functional; settings: 120 h
readout name: inhibition at 1 µM (%)
Write the answer as a number in %, unit excluded.

Case COc1cc(C(O)C2CCCN(Cc3ccccc3)C2=O)cc2c1OCCO2 (mixture of isomers) , Echinochloa esculenta, inhibition at 1 µM recorded as 50

Now turn to the next compound.
Case O=C1C(C(O)c2ccc(O)cc2)CCCN1Cc1ccccc1 (mixture of isomers) , Echinochloa esculenta, inhibition at 1 µM recorded as 50

* * *

inhibition at 1 µM by entry:
test system: Echinochloa esculenta; assay: Herbicidal activity against Echinochloa esculenta assessed as inhibition of seed germination at 1000 nM after 5 days relative to control; type: functional; settings: 120 h

inhibition at 1 µM recorded for this molecule, O=C1C(C(O)c2ccc3c(c2)OCCO3)CCCCN1C/C=C/c1ccccc1 (mixture of isomers) , is > 90%

New cases:
inhibition at 1 µM recorded for this molecule, O=C1C(C(O)c2ccc3ccccc3c2)CCCN1Cc1ccccc1 (mixture of isomers) , is < 49%

inhibition at 1 µM recorded for this molecule, COc1cccc(C(O)C2CCCN(Cc3ccccc3)C2=O)c1 (mixture of isomers) , is < 49%

* * *

inhibition at 1 µM by entry:
system: Echinochloa esculenta; experiment: Herbicidal activity against Echinochloa esculenta assessed as inhibition of seed germination at 1000 nM after 5 days relative to control; type: functional; conditions: 120 h
Write the answer as a number in %, unit excluded.

inhibition at 1 µM recorded for this compound, O=C1C(C(O)c2ccccc2[N+](=O)[O-])CCCN1Cc1ccccc1 (mixture of isomers) , is 50

Now turn to the next compound.
inhibition at 1 µM recorded for this compound, O=C1C(C(O)c2ccccc2C(F)(F)F)CCCN1Cc1ccccc1 (mixture of isomers) , is 50

* * *

system: Echinochloa esculenta; test: Herbicidal activity against Echinochloa esculenta assessed as inhibition of seed germination after 5 days relative to control; type: functional, organism-based; settings: 120 h
pIC50 by entry:
The read-out pIC50 is expressed as -log10 of concentration in moles per litre.

Examples with answers:
pIC50 recorded for this molecule, O=C1C(C(O)c2ccc3c(c2)OCCO3)CCCN1C/C=C/c1ccccc1 (mixture of isomers) , is 8.85

pIC50 recorded for this molecule, O=C1[C@@H]([C@@H](O)c2ccc3c(c2)OCCO3)CCCN1Cc1ccccc1 (relative stereo) , is 8.35

pIC50 recorded for this molecule, O=C1C(C(O)c2ccc3c(c2)OCCO3)CCCN1Cc1ccccc1 (mixture of isomers) , is 8.06

Now turn to the next molecule.
pIC50 recorded for this molecule, O=C1[C@@H]([C@@H](O)c2ccc3c(c2)OCCO3)CCCN1C/C=C/c1ccccc1 (relative stereo) , is 9.10

* * *

inhibition at 1 µM by entry:
system: Echinochloa esculenta; test: Herbicidal activity against Echinochloa esculenta assessed as inhibition of seed germination at 1000 nM after 5 days relative to control; assay type: functional; details: 120 h

Examples with answers:
inhibition at 1 µM recorded for this compound, CC(C)C(O)C1CCCN(Cc2ccccc2)C1=O (mixture of isomers) , is < 49%

inhibition at 1 µM recorded for this compound, O=C1C(C(O)c2cccc(C(F)(F)F)c2)CCCN1Cc1ccccc1 (configuration not stated) , is 50%

inhibition at 1 µM recorded for this compound, O=C1C(C(O)c2ccncc2)CCCN1Cc1ccccc1 (mixture of isomers) , is < 49%

inhibition at 1 µM recorded for this compound, O=C1C(C(O)c2ccc3c(c2)OCCO3)CCCN1Cc1ccccc1 (mixture of isomers) , is > 90%

inhibition at 1 µM recorded for this compound, COCC1COc2cc(C(O)C3CCCN(Cc4ccccc4)C3=O)ccc2O1 (mixture of isomers) , is > 90%

New cases:
inhibition at 1 µM recorded for this compound, O=C1C(C(O)c2ccc3c(c2)OCO3)CCCN1Cc1ccccc1 (mixture of isomers) , is < 49%

inhibition at 1 µM recorded for this compound, O=C1C(C(O)c2ccccn2)CCCN1Cc1ccccc1 (mixture of isomers) , is < 49%
